SYSTEM: Marinobacter sp. msLacBP6 variant Y187C (187C), SEQ ID NO: 38, Badan conjugate
TEST_DESCRIPTION: Fluorescence titration of conjugate
Assay type: binding
EXPERIMENTAL_PARAMETERS: read-out: appKd (lactate); λ1 460, λ2 537 nm
REPORTED_METRIC: Kd (µM)
Numbers only, in µM.

// field: Kd; key: C[C@H](O)C(=O)O [lactate] ; value = 300

* * *

SYSTEM: Flexistipes sinusarabici fsLacBP13 variant W188C, SEQ ID NO: 47, Badan conjugate (Flexistipes sinusarabici, UniProt F8E724, W211C)
Construct: Badan on Cys188
Sequence (F8E724 entry or part of it W211C): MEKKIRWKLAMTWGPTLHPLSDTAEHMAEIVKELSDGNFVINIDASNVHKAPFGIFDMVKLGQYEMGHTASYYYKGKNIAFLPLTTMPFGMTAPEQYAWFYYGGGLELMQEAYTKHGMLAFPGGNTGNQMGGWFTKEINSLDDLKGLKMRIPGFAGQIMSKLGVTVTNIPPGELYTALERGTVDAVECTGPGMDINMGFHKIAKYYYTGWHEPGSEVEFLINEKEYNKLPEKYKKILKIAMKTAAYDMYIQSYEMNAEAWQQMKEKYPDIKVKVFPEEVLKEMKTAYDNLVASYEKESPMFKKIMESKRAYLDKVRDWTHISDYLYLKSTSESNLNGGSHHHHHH
TEST_DESCRIPTION: Fluorescence titration of conjugate
Format: binding
EXPERIMENTAL_PARAMETERS: read-out: trueKd (lactate); λ1 483, λ2 466 nm
REPORTED_METRIC: Kd

Reported Kd ( C[C@H](O)C(=O)O [lactate] ) = > 100 mM

* * *

SYSTEM: Marinobacter adhaerens maLacBP8 variant F189C, SEQ ID NO: 43, Acrylodan conjugate (Marinobacter adhaerens, UniProt E4PNW2, C105A/C90A/F252C)
Construct: Acrylodan on Cys189
Sequence (E4PNW2 entry or part of it C90A/C105A/F252C): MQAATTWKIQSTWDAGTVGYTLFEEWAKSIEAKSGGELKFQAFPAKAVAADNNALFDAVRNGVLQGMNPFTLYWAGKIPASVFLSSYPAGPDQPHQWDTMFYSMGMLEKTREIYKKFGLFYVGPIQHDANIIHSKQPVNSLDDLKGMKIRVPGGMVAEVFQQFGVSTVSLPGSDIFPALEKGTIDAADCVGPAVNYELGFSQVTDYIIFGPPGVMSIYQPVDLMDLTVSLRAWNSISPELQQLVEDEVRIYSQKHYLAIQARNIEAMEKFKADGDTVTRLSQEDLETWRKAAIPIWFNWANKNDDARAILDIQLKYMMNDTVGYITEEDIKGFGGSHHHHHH
TEST_DESCRIPTION: Fluorescence titration of conjugate
REPORTED_METRIC: Kd (µM)
Give bare numbers, in µM.

// Kd lookup, compound = C[C@H](O)C(=O)O [lactate] , result: 1500

* * *

SYSTEM: Marinobacter sp. msLacBP6 variant 187C, D220E, SEQ ID NO: 56, Acrylodan conjugate
TEST_DESCRIPTION: Fluorescence titration of conjugate (affinity tuning)
Type: binding
EXPERIMENTAL_PARAMETERS: read-out: appKd (lactate); λ1 483, λ2 510 nm
REPORTED_METRIC: Kd
Form entry: enter the amount, then its unit.

Please fill in: Kd reported for C[C@H](O)C(=O)O [lactate] = 5.1 mM

* * *

SYSTEM: Marinobacter sp. msLacBP6 variant Y187C (187C), SEQ ID NO: 38, Acrylodan conjugate
TEST_DESCRIPTION: Fluorescence titration of conjugate
Type: binding
EXPERIMENTAL_PARAMETERS: read-out: appKd (lactate); λ1 452, λ2 482 nm as printed in Table 5
REPORTED_METRIC: Kd (µM)
One number for each entry, in µM.

The molecule listed as C[C@H](O)C(=O)O [lactate] has a reported Kd of 400

* * *

SYSTEM: Marinobacter sp. msLacBP6 variant 187C, F68M, SEQ ID NO: 50, Badan conjugate
TEST_DESCRIPTION: Fluorescence titration of conjugate (affinity tuning)
Format: binding
EXPERIMENTAL_PARAMETERS: read-out: trueKd (lactate); λ1 464, λ2 527 nm
REPORTED_METRIC: Kd (µM)
Give bare numbers, in µM.

Lookup result for C[C@H](O)C(=O)O [lactate] ; measured Kd: 600

* * *

SYSTEM: Marinobacter sp. msLacBP6 variant 187C, F68M, SEQ ID NO: 50, Acrylodan conjugate
TEST_DESCRIPTION: Fluorescence titration of conjugate (affinity tuning)
Assay type: binding
EXPERIMENTAL_PARAMETERS: read-out: trueKd (lactate); λ1 459, λ2 516 nm
REPORTED_METRIC: Kd (µM)
Numbers only, in µM.

Reported Kd of C[C@H](O)C(=O)O [lactate] : 500

Provenance of the data: patent US11099176B2
